- Assay Notes: MTT test, intrinsic cytotoxicity
- Assay type: cell-based
- Test Parameters: human, HeLa cells (cervical carcinoma), compound alone
Below, each entry is listed with its recorded CC50 at 3 days.

1) CC(=O)C1=C(O)C=C2Oc3c(-c4csc(N/N=C/c5ccc(Br)s5)n4)c(O)c(C)c(O)c3[C@]2(C)C1=O [(−)-16f]; ~80 µM

Here is another compound to look at.
Task: Could you tell me which CC50 at 3 days is on file for CC(=O)C1=C(O)C=C2Oc3c(-c4csc(N/N=C/c5ccc(Br)s5)n4)c(O)c(C)c(O)c3[C@@]2(C)C1=O [(+)-16f] ?
Output: ~80 µM

* * *

- System Tested: Tdp1 (Homo sapiens)
- Construct: made in house; host or cells: Escherichia coli
- Sequence (Q9NUW8 whole entry): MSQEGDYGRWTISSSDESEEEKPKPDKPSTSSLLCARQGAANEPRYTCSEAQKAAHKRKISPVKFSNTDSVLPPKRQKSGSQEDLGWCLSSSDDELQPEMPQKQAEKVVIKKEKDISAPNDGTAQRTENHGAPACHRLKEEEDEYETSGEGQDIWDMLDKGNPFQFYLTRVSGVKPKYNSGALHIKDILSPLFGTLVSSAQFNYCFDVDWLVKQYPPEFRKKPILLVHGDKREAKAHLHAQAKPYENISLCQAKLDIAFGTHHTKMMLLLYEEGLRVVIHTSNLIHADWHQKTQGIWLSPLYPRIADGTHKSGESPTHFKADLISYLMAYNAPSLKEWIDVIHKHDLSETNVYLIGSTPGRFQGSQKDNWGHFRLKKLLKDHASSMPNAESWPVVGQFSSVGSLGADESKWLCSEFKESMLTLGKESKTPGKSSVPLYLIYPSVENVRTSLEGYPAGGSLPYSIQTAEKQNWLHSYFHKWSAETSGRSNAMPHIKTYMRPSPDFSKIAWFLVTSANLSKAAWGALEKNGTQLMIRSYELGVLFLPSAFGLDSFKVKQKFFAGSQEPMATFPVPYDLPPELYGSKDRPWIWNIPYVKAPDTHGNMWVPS
- Assay Notes: Real-time detection of Tdp1 activity (5'-FAM/3'-BHQ1 oligonucleotide biosensor)
- Type: biochemical
- Test Parameters: 1.5 nM Tdp1, 50 nM oligonucleotide substrate, 26 °C
Quantity Kind: pIC50
Note on units: pIC50 is unitless, being -log10 of a concentration expressed in mol/L.

1) CC(=O)C1=C(O)C=C2Oc3c(-c4csc(N/N=C/c5sccc5C)n4)c(O)c(C)c(O)c3[C@]2(C)C1=O [(−)-16i]; 6.92

Task: Query (compound): COc1ccc(/C=N/Nc2nc(-c3c(O)c(C)c(O)c4c3OC3=CC(O)=C(C(C)=O)C(=O)[C@@]34C)cs2)cc1CN1CCN(c2ccc(F)cc2)CC1 [(+)-17i] ; field requested: pIC50
Output: 7.10

Task: Param item = CC(=O)C1=C(O)C=C2Oc3c(-c4csc(N/N=C/c5ccc([N+](=O)[O-])s5)n4)c(O)c(C)c(O)c3[C@]2(C)C1=O [(−)-16d] ; retrieve measured pIC50.
Output: 6.85

Task: Return reported pIC50; argument: CC(=O)C1=C(O)C=C2Oc3c(-c4csc(N/N=C/c5cc(Br)cs5)n4)c(O)c(C)c(O)c3[C@]2(C)C1=O [(−)-16h]
Output: 7.25

Task: Can you share its pIC50? I mean this compound: COc1ccc(/C=N/Nc2nc(-c3c(O)c(C)c(O)c4c3OC3=CC(O)=C(C(C)=O)C(=O)[C@@]34C)cs2)cc1Cn1nc(C)c([N+](=O)[O-])c1C [(+)-17k]
Output: 7.27

Task: Would you mind telling me what pIC50 value was observed for CC(=O)C1=C(O)C=C2Oc3c(-c4csc(N/N=C/c5ccc[nH]5)n4)c(O)c(C)c(O)c3[C@@]2(C)C1=O [(+)-16m] ?
Output: 6.73

Task: // query pIC50 value for entry COc1ccc(/C=N/Nc2nc(-c3c(O)c(C)c(O)c4c3OC3=CC(O)=C(C(C)=O)C(=O)[C@]34C)cs2)cc1CN1CCN(c2ccccc2OC)CC1 [(−)-17j]
Output: 7.15

Task: Quick check: pIC50 of CC(=O)C1=C(O)C=C2Oc3c(-c4csc(N/N=C/c5ccc([N+](=O)[O-])s5)n4)c(O)c(C)c(O)c3[C@@]2(C)C1=O [(+)-16d] ?
Output: 7.15

Task: // pIC50 lookup, key: CC(=O)C1=C(O)C=C2Oc3c(-c4csc(N/N=C/c5cnc[nH]5)n4)c(O)c(C)c(O)c3[C@]2(C)C1=O [(−)-16o]
Output: 6.24

Task: For the compound shown here, COc1ccc(/C=N/Nc2nc(-c3c(O)c(C)c(O)c4c3OC3=CC(O)=C(C(C)=O)C(=O)[C@]34C)cs2)cc1COc1cccc(F)c1 [(−)-17b] , give the reported pIC50.
Output: 7.11

Task: Consider the compound shown here: COc1ccc(/C=N/Nc2nc(-c3c(O)c(C)c(O)c4c3OC3=CC(O)=C(C(C)=O)C(=O)[C@@]34C)cs2)cc1COc1ccccc1F [(+)-17c] What is its recorded pIC50?
Output: 7.39

Task: // lookup pIC50 for COc1ccc(/C=N/Nc2nc(-c3c(O)c(C)c(O)c4c3OC3=CC(O)=C(C(C)=O)C(=O)[C@]34C)cs2)cc1COc1ccc(F)cc1 [(−)-17a]
Output: 7.27

Task: Could you tell me which pIC50 is on file for CC(=O)C1=C(O)C=C2Oc3c(-c4csc(N/N=C/c5sccc5C)n4)c(O)c(C)c(O)c3[C@@]2(C)C1=O [(+)-16i] ?
Output: 7.14
